Reported unfolding enthalpy (calorimetric) by item:
B1: Lysozyme C, P61626 (parent)
chain: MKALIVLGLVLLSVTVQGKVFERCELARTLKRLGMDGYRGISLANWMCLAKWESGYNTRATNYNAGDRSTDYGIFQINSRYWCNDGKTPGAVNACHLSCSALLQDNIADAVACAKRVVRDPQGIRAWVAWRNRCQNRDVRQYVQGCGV

- Variants of: B1
- CONDITIONS_USED: Homo sapiens; pH 3.02; Thermal; DSC; glycine 0.05 M; reversible: yes; structure 1LZ1; whole UniProt chain shown
OBSERVABLE: unfolding enthalpy (calorimetric) (kcal/mol)

INSERT INTO results (variant_description, observable, experimental_result) VALUES
  ('V20A', 'unfolding enthalpy (calorimetric)', 62),
  ('V143A', 'unfolding enthalpy (calorimetric)', 76.3),
  ('V118A', 'unfolding enthalpy (calorimetric)', 77.8),
  ('V117A', 'unfolding enthalpy (calorimetric)', 68.9),
  ('V111A', 'unfolding enthalpy (calorimetric)', 77.5);

// data source = FireProtDB (doi:10.1006/jmbi.1998.1906)
